Can you tell me inhibition at 1 µM for the items I'm about to list?
Biological target: kinase domain protein of RC kinase (Homo sapiens)
Sequence (Q56UN5 1061-1324 limits assumed): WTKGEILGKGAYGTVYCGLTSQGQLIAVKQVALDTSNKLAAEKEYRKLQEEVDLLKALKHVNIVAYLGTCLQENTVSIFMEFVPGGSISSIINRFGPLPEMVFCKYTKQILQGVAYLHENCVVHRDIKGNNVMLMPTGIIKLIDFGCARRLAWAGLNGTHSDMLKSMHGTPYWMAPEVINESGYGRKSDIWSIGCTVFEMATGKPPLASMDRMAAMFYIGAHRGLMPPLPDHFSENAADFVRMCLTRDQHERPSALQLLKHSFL
Assay: Enzymatic assay for kinase inhibitory activity (Crebtide substrate, LANCE read-out)
Assay type: biochemical
Conditions: compound at 1 μM

Recorded result, `N#Cc1c(Nc2cccc(Cl)c2)n[nH]c1/N=C/c1ccc(C(F)(F)F)cc1` , inhibition at 1 µM: 5 to 20%

Recorded result, `NC(=O)c1c(Nc2cccc(Cl)c2)n[nH]c1/N=C/c1ccc(F)cc1O` , inhibition at 1 µM: 5 to 20%

Recorded result, `N#Cc1c(Nc2cccc(Cl)c2)n[nH]c1/N=C/c1ccccc1-c1cccs1` , inhibition at 1 µM: 5 to 20%

Recorded result, `COc1ccccc1/C=N/c1[nH]nc(Nc2cccc(Cl)c2)c1C#N` , inhibition at 1 µM: 20 to 50%

Recorded result, `NC(=O)c1c(Nc2cccc(Cl)c2)n[nH]c1/N=C/c1cccc(Oc2ncccn2)c1` , inhibition at 1 µM: 5 to 20%

Recorded result, `COc1cc(/C=N/c2[nH]nc(Nc3cccc(Cl)c3)c2C(N)=O)ccc1OCc1cnc(Cl)s1` , inhibition at 1 µM: 5 to 20%

Recorded result, `COc1ccc(/C=N/c2[nH]nc(Nc3ccc(Cl)cc3)c2C(N)=O)cc1` , inhibition at 1 µM: ≤ 5%

Recorded result, `COc1ccc(/C=N/c2[nH]nc(Nc3cccc(Cl)c3)c2C(N)=O)cc1` , inhibition at 1 µM: 20 to 50%

Recorded result, `N#Cc1c(Nc2cccc(Cl)c2)n[nH]c1/N=C/c1ccc(O)cc1` , inhibition at 1 µM: ≤ 5%

Recorded result, `N#Cc1c(Nc2ccccc2)n[nH]c1/N=C/c1cccc2ccccc12` , inhibition at 1 µM: 5 to 20%

Recorded result, `N#Cc1c(Nc2cccc(Cl)c2)n[nH]c1/N=C/c1ccc(OC(F)F)c(O)c1` , inhibition at 1 µM: ≤ 5%

Recorded result, `NC(=O)c1c(Nc2ccccc2)n[nH]c1/N=C/c1ccc(Cl)cc1` , inhibition at 1 µM: 5 to 20%

Recorded result, `NC(=O)c1c(Nc2cccc(Cl)c2)n[nH]c1/N=C/c1ncccc1F` , inhibition at 1 µM: ≤ 5%

Recorded result, `NC(=O)c1c(Nc2cccc(Cl)c2)n[nH]c1/N=C/c1c(O)cccc1Cl` , inhibition at 1 µM: 5 to 20%

Recorded result, `COc1cccc(O)c1/C=N/c1[nH]nc(Nc2ccccc2Cl)c1C(N)=O` , inhibition at 1 µM: 5 to 20%

Recorded result, `Cc1ccc(/C=N/c2[nH]nc(Nc3cccc(Cl)c3)c2C(N)=O)c(O)c1` , inhibition at 1 µM: ≤ 5%

Recorded result, `N#Cc1cc(/C=N/c2[nH]nc(Nc3cccc(Cl)c3)c2C(N)=O)ccc1F` , inhibition at 1 µM: ≤ 5%

Recorded result, `COc1ccc(Nc2n[nH]c(/N=C/c3ccc([N+](=O)[O-])cc3)c2C#N)cc1` , inhibition at 1 µM: ≤ 5%

Recorded result, `COc1ccccc1/C=N/c1[nH]nc(Nc2cccc(Cl)c2)c1C(N)=O` , inhibition at 1 µM: 20 to 50%

Recorded result, `Cc1cc(F)ccc1/C=N/c1[nH]nc(Nc2cccc(Cl)c2)c1C#N` , inhibition at 1 µM: 5 to 20%

Recorded result, `N#Cc1c(Nc2cccc(Cl)c2)n[nH]c1/N=C/c1ccc(OCCO)cc1` , inhibition at 1 µM: 5 to 20%

Recorded result, `COc1ccc(F)cc1/C=N/c1[nH]nc(Nc2cccc(Cl)c2)c1C(N)=O` , inhibition at 1 µM: 20 to 50%

Recorded result, `N#Cc1c(Nc2cccc(Cl)c2)n[nH]c1/N=C/c1ccc(F)cc1O` , inhibition at 1 µM: 20 to 50%

Recorded result, `NC(=O)c1c(Nc2ccc(Cl)cc2)n[nH]c1/N=C/c1ccc(O)cc1O` , inhibition at 1 µM: ≥ 50%

Recorded result, `N#Cc1c(Nc2ccccc2)n[nH]c1/N=C/c1ccc[nH]1` , inhibition at 1 µM: 5 to 20%

Recorded result, `COc1ccccc1/C=N/c1[nH]nc(Nc2ccc(Cl)cc2)c1C#N` , inhibition at 1 µM: ≤ 5%

Recorded result, N#Cc1c(Nc2cccc(Cl)c2)n[nH]c1/N=C/C1CCCN1C(=O)OCc1ccccc1 (stereo not shown) , inhibition at 1 µM: 5 to 20%

Recorded result, `N#Cc1c(Nc2cccc(Cl)c2)n[nH]c1/N=C/c1c[nH]c2c(F)c(F)c(F)c(F)c12` , inhibition at 1 µM: 5 to 20%

----------
Can you tell me melting point for the items I'm about to list?

Recorded result, COc1ccccc1/C=N/c1[nH]nc(Nc2ccc(Cl)cc2)c1C#N [Compound A38] , melting point: 262 to 265 °C

Recorded result, COc1cccc(/C=N/c2[nH]nc(Nc3cccc(Cl)c3)c2C(N)=O)c1O [Compound B53] , melting point: 271 to 274 °C

Recorded result, NC(=O)c1c(Nc2ccccc2)n[nH]c1/N=C/c1ccc(O)c([N+](=O)[O-])c1 [Compound B9] , melting point: 275 to 277 °C

Recorded result, N#Cc1c(Nc2cccc(Cl)c2)n[nH]c1N=Cc1ccc(O)c([N+](=O)[O-])c1 [Compound A5] , melting point: 286 to 288 °C

Recorded result, N#Cc1c(Nc2cccc(Cl)c2)n[nH]c1/N=C/c1cncc(N2CCCC2)c1 [Compound A86] , melting point: 305 to 309 °C

Recorded result, COc1cccc(O)c1/C=N/c1[nH]nc(Nc2ccccc2Cl)c1C(N)=O [Compound B1] , melting point: 238 to 246 °C

Recorded result, N#Cc1c(Nc2cccc(Cl)c2)n[nH]c1/N=C/c1cccc(Oc2ncccn2)c1 [Compound A76] , melting point: 234 to 239 °C

Recorded result, N#Cc1c(Nc2cccc(Cl)c2)n[nH]c1/N=C/c1ccc(N2CCOCC2)nc1 [Compound A79] , melting point: 273 to 279 °C

Recorded result, N#Cc1c(Nc2ccccc2)n[nH]c1/N=C/c1ccc([N+](=O)[O-])cc1 [Compound A19] , melting point: 290 to 294 °C

Recorded result, COc1cccc(/C=N/c2[nH]nc(Nc3cccc(Cl)c3)c2C(N)=O)c1 [Compound B8] , melting point: 283 to 285 °C

Recorded result, NC(=O)c1c(Nc2ccc(Cl)cc2)n[nH]c1/N=C/c1ccc([N+](=O)[O-])cc1 [Compound B27] , melting point: 291 to 293 °C

Recorded result, NC(=O)c1c(Nc2cccc(Cl)c2)n[nH]c1/N=C/c1ccc(O)cc1 [Compound B5] , melting point: 261 to 263 °C

Recorded result, N#Cc1c(Nc2cccc(Cl)c2)n[nH]c1/N=C/c1ccc(OCCO)cc1 [Compound A88] , melting point: 229 to 232 °C

Recorded result, N#Cc1c(Nc2cccc(Cl)c2)n[nH]c1/N=C/c1ccc(C(F)(F)F)cc1 [Compound A15] , melting point: 279 to 282 °C

Recorded result, N#Cc1c(Nc2cccc(Cl)c2)n[nH]c1/N=C/c1ccccc1-c1cccs1 [Compound A81] , melting point: 75 to 80 °C

Recorded result, N#Cc1c(NC2CC2)n[nH]c1/N=C/c1ccc(O)cc1 [Compound A48] , melting point: 220 to 228 °C

Recorded result, NC(=O)c1c(Nc2cccc(Cl)c2)n[nH]c1/N=C/c1cccc2ccccc12 [Compound B15] , melting point: 280 to 283 °C

Recorded result, CS(=O)(=O)N1CCC(/C=N/c2[nH]nc(Nc3cccc(Cl)c3)c2C#N)CC1 [Compound A80] , melting point: 102 to 105 °C

Recorded result, COc1ccccc1/C=N/c1[nH]nc(Nc2cccc(Cl)c2)c1C#N [Compound A23] , melting point: 239 to 241 °C

Recorded result, N#Cc1c(Nc2ccc(Cl)cc2)n[nH]c1/N=C/c1ccc(Cl)cc1 [Compound A35] , melting point: 296 to 300 °C

Recorded result, COc1ccc(/C=N/c2[nH]nc(Nc3ccccc3Cl)c2C(N)=O)cc1[N+](=O)[O-] [Compound B118] , melting point: 304 to 306 °C

Recorded result, N#Cc1c(Nc2cccc(Cl)c2)n[nH]c1/N=C/c1cc(F)cc2c1OCOC2 [Compound A29] , melting point: 248 to 251 °C

Recorded result, N#Cc1c(Nc2ccccc2)n[nH]c1/N=C/c1cccc2ccccc12 [Compound A8] , melting point: 259 to 263 °C

----------
Can you tell me melting point for the items I'm about to list?

Recorded result, NC(=O)c1c(Nc2ccccc2Cl)n[nH]c1/N=C/c1ccc(O)c([N+](=O)[O-])c1 [Compound B113] , melting point: 301 to 304 °C

Recorded result, COc1cc(/C=N/c2[nH]nc(Nc3cccc(Cl)c3)c2C#N)ccc1OCc1cnc(Cl)s1 [Compound A60] , melting point: 210 to 220 °C

Recorded result, COc1ccc(/C=N/c2[nH]nc(Nc3cccc(Cl)c3)c2C#N)cn1 [Compound A100] , melting point: 286 to 291 °C
